Data provenance is the supplement of paper PMC10567573.

B1: ZNF649 (parent)
chain: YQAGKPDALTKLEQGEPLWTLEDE

Variants of: B1
protocol details: protein stability index of a GFP-peptide fusion (GPS, HEK-293T) (PSI 1-6); higher = more stable;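 also: lentivirally expressed fusions sorted by FACS into six bins by GFP to DsRed ratio, PSI derived from sequencing read proportions per bin multiplied by bin number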
condition parameters: c terminus: a fixed tail appended
observable: protein stability index

// worked examples, protein stability index included
| input sequence | protein stability index |
| --- | --- |
| YQAQKPDALTKLEQGEPLWTLEDE [G4Q] | 4.08 |
| YQAGKPDALTKLEQMEPLWTLEDE [G15M] | 3.97 |
| YQAGKPDALTKLEQGEPLWTLEDH [E24H] | 4.04 |
| YQAGKPDALTELEQGEPLWTLEDE [K11E] | 4.06 |
| YQAGKPDALTKLEQGEPLWILEDE [T20I] | 3.96 |
| YQAGKPDALTTLEQGEPLWTLEDE [K11T] | 4.09 |
| YQAGKPDALTKLEQGPPLWTLEDE [E16P] | 3.93 |
| YQAGKPDALTKLELGEPLWTLEDE [Q14L] | 4.07 |

Now look at this entry.
Consider the variant shown here: YQAGKPDALTKLEQGAPLWTLEDE [E16A] What is its recorded protein stability index?
3.93
